assay_info: Cytotoxicity against HIV2 ROD infected in human MT4 cells by MTT assay
Type: cell-based
condition_context: MT4 cells infected with HIV2 ROD
Label key: true (1) means CC50 under 40 µM; false (0) means CC50 of 40 µM or more.

>>> label("O=C(CSc1nccnc1-c1ccccc1Cl)Nc1ccccc1[N+](=O)[O-]")
"false (0)"
>>> label("O=C(CSc1nccnc1-c1ccccc1Cl)N1CCCc2ccccc21")
"true (1)"
>>> label("COC(=O)c1sccc1NC(=O)CSc1nccnc1-c1ccccc1Cl")
"false (0)"
>>> label("O=C(CSc1nccnc1-c1ccccc1Cl)Nc1ccccc1")
"true (1)"
>>> label("COC(=O)c1ccc(NC(=O)CSc2nccnc2-c2ccccc2Cl)c(Br)c1")
"false (0)"
>>> label("CCOC(=O)c1ccc(NC(=O)CSc2nccnc2-c2ccccc2Cl)c(Br)c1")
"false (0)"
>>> label("O=C(CSc1nccnc1-c1ccccc1Cl)Nc1ccc(Cl)cc1Cl")
"true (1)"

----------
assay_info: Cytotoxicity against HIV2 ROD infected in human MT4 cells by MTT assay
Type: cell-based
condition_context: MT4 cells infected with HIV2 ROD
Could you please mark MET for values of CC50 below 50 µM and NOT MET for values at or above it?

>>> label("Cc1ccc2sc(NC(=O)CSc3nccnc3-c3ccccc3Cl)nc2c1")
"MET"
>>> label("O=C(CSc1nccnc1-c1ccccc1Cl)Nc1ccccc1Cl")
"MET"
>>> label("CC(=O)c1ccc(NC(=O)CSc2nccnc2-c2ccccc2Cl)c(Br)c1")
"MET"
>>> label("O=C(CSc1nccnc1-c1ccccc1Cl)Nc1cccnc1Cl")
"NOT MET"
>>> label("O=C(CSc1nccnc1-c1ccccc1Cl)Nc1ccccc1F")
"NOT MET"
>>> label("Cc1ccc(NC(=O)CSc2nccnc2-c2ccccc2Cl)c(Br)c1")
"MET"
>>> label("Cc1ccc(NC(=O)CSc2nccnc2-c2ccccc2Cl)c([N+](=O)[O-])c1")
"NOT MET"
>>> label("Cc1cn([C@H]2C[C@H](N=[N+]=[N-])[C@@H](CO)O2)c(=O)[nH]c1=O [ZIDOVUDINE]")
"NOT MET"
>>> label("O=C(CSc1nccnc1-c1ccccc1Cl)Nc1ccc(Cl)cc1Br")
"MET"
>>> label("Nc1ccn([C@H]2CC[C@@H](CO)O2)c(=O)n1 [ZALCITABINE]")
"NOT MET"

----------
System: Human immunodeficiency virus 2
assay_info: Antiviral activity against HIV2 ROD infected in human MT4 cells assessed as inhibition of virus-induced cytopathic effect by MTT assay
Format: functional, organism-based
condition_context: Human immunodeficiency virus 2, ISOLATE ROD
pEC50: −log10 of the molar value.
result_type: pEC50

>>> recorded_measurement("Cc1ccc2sc(NC(=O)CSc3nccnc3-c3ccccc3Cl)nc2c1")
"< 4.52"
>>> recorded_measurement("O=C(CSc1nccnc1-c1ccccc1Cl)N1CCc2ccccc2C1")
"< 4.30"
>>> recorded_measurement("COC(=O)c1sccc1NC(=O)CSc1nccnc1-c1ccccc1Cl")
"< 4.32"
>>> recorded_measurement("O=C(CSc1nccnc1-c1ccccc1Cl)Nc1ccccc1")
"< 4.48"
>>> recorded_measurement("CC(=O)c1ccc(NC(=O)CSc2nccnc2-c2ccccc2Cl)c(Br)c1")
"< 4.51"
>>> recorded_measurement("O=C(CSc1nccnc1-c1ccccc1Cl)Nc1ccc(Cl)cc1Cl")
"< 4.47"
>>> recorded_measurement("O=C(CSc1nccnc1-c1ccccc1Cl)Nc1ccc(Cl)cc1Br")
"< 4.54"
>>> recorded_measurement("O=C(CSc1nccnc1-c1ccccc1Cl)Nc1cccnc1Cl")
"< 3.78"
>>> recorded_measurement("O=C(CSc1nccnc1-c1ccccc1Cl)N1CCCc2ccccc21")
"< 4.47"
>>> recorded_measurement("CCOC(=O)c1ccc(NC(=O)CSc2nccnc2-c2ccccc2Cl)c(Br)c1")
"< 4.21"
>>> recorded_measurement("Cc1ccc(NC(=O)CSc2nccnc2-c2ccccc2Cl)c([N+](=O)[O-])c1")
"< 3.83"
>>> recorded_measurement("O=C(CSc1nccnc1-c1ccccc1Cl)Nc1ccccc1Br")
"< 4.39"
>>> recorded_measurement("O=C(CSc1nccnc1-c1ccccc1Cl)Nc1ccccc1F")
"< 4.04"
>>> recorded_measurement("O=C(CSc1nccnc1-c1ccccc1Cl)Nc1ccccc1[N+](=O)[O-]")
"< 4.26"
>>> recorded_measurement("O=C(CSc1nccnc1-c1ccccc1Cl)Nc1ccccc1Cl")
"< 4.34"
>>> recorded_measurement("COC(=O)c1ccc(NC(=O)CSc2nccnc2-c2ccccc2Cl)c(Br)c1")
"< 3.97"
>>> recorded_measurement("Cc1ccc(NC(=O)CSc2nccnc2-c2ccccc2Cl)c(Br)c1")
"< 4.46"
